Experiment: Lipophilicity, log D of the compound
Type: physicochemical
Conditions: octanol/water
Listing: logD of selected molecules

{"molecule": "Cc1nc(Cn2c(=O)[nH]c3c(N)nc(C(F)(F)F)cc32)co1", "logD": 1.7}
{"molecule": "COCCCn1c(=O)[nH]c2c(N)nc(C(F)(F)F)cc21", "logD": 1.9}
{"molecule": "Cc1ccc(Cn2c(=O)[nH]c3c(N)nc(-n4nccn4)cc32)cn1", "logD": 1.6}
{"molecule": "Cc1ccc(Cn2c(=O)[nH]c3c(N)nc(OCC4CCOC4)cc32)cn1 (stereo unspecified)", "logD": 1.8}
{"molecule": "Cc1ncc(Cn2c(=O)[nH]c3c(N)nc(C(F)(F)F)cc32)cn1", "logD": 1.6}
{"molecule": "Cc1ccc(Cn2c(=O)[nH]c3c(N)nc(C(F)(F)F)cc32)nc1", "logD": 2.2}

* * *

Test: Lipophilicity, log D of the compound
Type: physicochemical
Conditions: octanol/water
Lab note: compare logD with 2, writing True if less and False if equal or more.

{"record.smiles": "Cc1ccc(Cn2c(=O)[nH]c3c(N)nc(-c4nc(C)co4)cc32)cn1", "label.value": "False"}
{"record.smiles": "Cc1cnc(Cn2c(=O)[nH]c3c(N)nc(C(F)(F)F)cc32)cn1", "label.value": "True"}
{"record.smiles": "Cc1ccc(Cn2c(=O)[nH]c3c(N)nc(OCC4CCN(C)CC4)cc32)cn1", "label.value": "True"}
{"record.smiles": "Cc1cc(Cn2c(=O)[nH]c3c(N)nc(C(F)(F)F)cc32)no1", "label.value": "False"}
{"record.smiles": "COCCCOc1cc2c([nH]c(=O)n2Cc2ccc(C)nc2)c(N)n1", "label.value": "True"}
{"record.smiles": "Cc1nc(Cn2c(=O)[nH]c3c(N)nc(C(F)(F)F)cc32)cs1", "label.value": "False"}
{"record.smiles": "Nc1nc(C(F)(F)F)cc2c1[nH]c(=O)n2Cc1ccccc1", "label.value": "False"}

* * *

Listing: half-life of selected molecules
Assay: Half life in rat cytosol
Format: ADME

{"record.smiles": "Cc1ccc(Cn2c(=O)[nH]c3c(N)nc(-c4nc(C)co4)cc32)cn1", "half-life": "> 16.7 h"}
{"record.smiles": "Cc1nc(Cn2c(=O)[nH]c3c(N)nc(C(F)(F)F)cc32)cs1", "half-life": "> 16.7 h"}
{"record.smiles": "Cc1cc(Cn2c(=O)[nH]c3c(N)nc(C(F)(F)F)cc32)no1", "half-life": "> 16.7 h"}
{"record.smiles": "Cc1ccc(Cn2c(=O)[nH]c3c(N)nc(C(F)(F)F)cc32)nc1", "half-life": "1.38 h"}
{"record.smiles": "Cc1nc(Cn2c(=O)[nH]c3c(N)nc(C(F)(F)F)cc32)co1", "half-life": "> 16.7 h"}

Origin of values: ChEMBL document CHEMBL1759966
